// data source = patent US20080274947A1

Can you tell me Cmax at 2 h for the items I'm about to list?
- test description: Liver exposure: substance level in liver homogenate by LC-MS/MS
- Assay type: in vivo
- condition summary: rat, oral, male Wistar rats, 10 mg/kg of body weight, liver dissected after 2 h, read-out: Cmax values in the liver (L)

[in] Returns the measured Cmax at 2 h for the input compound. Input: O=C1[C@H](CC[C@H](O)c2ccc(F)cc2)[C@@H](c2ccc(OCc3ccc(C[N+]45CCN(CC4)CC5)cc3)cc2)N1c1ccc(F)cc1.[Br-] [reference compound]
[out] 0.2 µg/mL

[in] I am curious: what Cmax at 2 h value has been reported for N.O=C1[C@H](CC[C@H](O)c2ccc(F)cc2)[C@@H](c2ccc(OCCCOS(=O)(=O)O)cc2)N1c1ccc(F)cc1 [reference compound] ?
[out] 24.3 µg/mL

[in] Item under review: O=C1[C@H](CC[C@H](O)c2ccc(F)cc2)[C@@H](c2ccc(OCc3ccc(C[N+]45CCN(CC4)CC5)cc3)cc2O)N1c1ccc(F)cc1.[Br-] . Reported Cmax at 2 h?
[out] 0.08 µg/mL

[in] Any idea what its Cmax at 2 h is? The compound is N.O=C1[C@H](CC[C@H](O)c2ccc(F)cc2)[C@@H](c2ccc(OCCCOS(=O)(=O)O)cc2O)N1c1ccc(F)cc1
[out] 0.3 µg/mL
